Reference for the values: PubChem BioAssay (NCI)

Tested on: HCT-116 colon
Assay: NCI tumour cell line growth inhibition, 48 h
reportedProperty: TGI

Before answering, review these 3 worked examples.
1. N#Cc1cccc(C(=O)Nc2cccc(NC(=O)c3cccc(C#N)c3)c2)c1; > 100 µM
2. NC1CC(N)c2c(Br)sc(Br)c21 (stereo not drawn); > 100 µM
3. O=C1C=C[C@@]23C[C@@H](Nc4c(O)c5c6c(c42)=NCCC=6C=N5)SC3=C1; 4.03 µM

Bench note: what TGI did COc1cc(C(O)c2nc3ccccc3s2)cc(OC)c1OC (stereo not drawn) show?
> 100 µM

Bench note: what TGI did C/C(=C\c1ccn(-c2ccc(N)c(F)c2)n1)[C@@H]1C[C@@H]2O[C@]2(C)CCC[C@H](C)[C@H](O)[C@@H](C)C(=O)C(C)(C)[C@@H](O)CC(=O)O1 show?
> 50 µM

Bench note: what TGI did C=CC1=C[C@@H]2[C@@H]3O[C@]4(CC[C@H](O4)[C@@H](C)C[C@@H](O)C3=O)C[C@H](O)C3=NCC[C@@]32CC1 show?
0.00371 µM

Bench note: what TGI did CCO[C@@H]1CCC(S(=O)c2ccc(C)cc2)=CO1 (stereo partly drawn) show?
> 100 µM

Bench note: what TGI did [C-]#[O+].[C-]#[O+].[C-]#[O+].[C-]#[O+].[Ir].[Ir].[O-]c1ccc2ccccc2c1C=Nc1ccc(N=Cc2c([O-])ccc3ccccc23)cc1 show?
> 100 µM

---

Measured TGI of individual entries
System: UACC-62 melanoma
Assay: NCI tumour cell line growth inhibition, 48 h

1. COc1ccc(-c2cnnn2-c2cc(OC)c3c(c2)OCO3)cc1; > 100 µM

Bench note: what TGI did C=CCOC1OC(CS(=O)(=O)O)C(O)C(O)C1O (stereo unspecified) show?
> 100 µM

Bench note: what TGI did CC(C)C1OC2(C)OC(=N)C1(C#N)C(C#N)(C#N)C2C (stereo unspecified) show?
80.5 µM

Bench note: what TGI did CSc1nc(-c2ccc(C)cc2)c(C#N)c(=O)[nH]1 show?
> 100 µM

---

System: 786-0 renal
Assay: NCI tumour cell line growth inhibition, 48 h
Measured TGI of individual entries

Before answering, review these 5 worked examples.
1. Cc1cc(C)c2c(c1)Nc1ccccc1P2c1ccccc1 (configuration not stated); > 100 µM
2. CC1CC(c2cccc3c2OCO3)=Nc2ccccc2S1 (configuration not stated); > 100 µM
3. COc1ccc(C(=O)c2sc(Nc3ccccc3)nc2N)cc1; > 100 µM
4. COc1cc(C(O)c2nc3ccccc3s2)cc(OC)c1OC (configuration not stated); > 100 µM
5. CN(c1ccc(NC(=O)Nc2ccc(OC(F)(F)F)cc2)cc1)c1ccnc(Nc2cccc(S(N)(=O)=O)c2)n1; 12 µM

Bench note: what TGI did COC(=O)c1cc(-c2cc(OC)c(OC)c(OC)c2)[nH]c1N/N=C/c1c(Cl)cccc1Cl show?
7.18 µM

Bench note: what TGI did NNC(=O)CCC(=O)Nc1cc(Cl)c(Cl)cc1Cl show?
> 100 µM

Bench note: what TGI did COC(=O)[C@@H](O)[C@]1(C(=O)OC)C2O[C@@H](OC)[C@@H]1CCCCCC[C@H]2O show?
> 100 µM

---

Measured TGI of individual entries
Tested on: OVCAR-3 ovarian
Experiment: NCI tumour cell line growth inhibition, 48 h
Supply the numeric figure in µM, leaving out any unit text.

Before answering, review these 5 worked examples.
1. O=c1[nH]nc2ccccc2c1Cl; 6.21
2. COc1ccc(C(=O)COc2cccc(/C=C3\CSc4ccccc4C3=O)c2)cc1; 3.65
3. Cc1nc(Nc2ccc(F)cc2)c2sc(=S)n(-c3ccc(F)cc3)c2n1; 30.9
4. Cn1ccnc1C(=O)/C=C/c1ccc(CC(=O)Nc2ccc(S(F)(F)(F)(F)F)cc2)cc1; 4.91
5. COc1cc(Cn2c(=S)ss/c2=N\C(=S)N(C)C)cc(OC)c1OC; 13.6

Bench note: what TGI did NC1=C(Br)C(=O)c2ncccc2C1=O show?
2.33

Bench note: what TGI did COc1cc(NCc2ccc3nc(-c4ccccc4)c(N)nc3c2)cc(OC)c1OC show?
82.7

Bench note: what TGI did COc1ccc2cc1Oc1ccc(cc1)C[C@@H]1c3cc(c(OC)cc3CCN1C)Oc1c(OC)c(OC)cc3c1[C@@H](C2)N(C)CC3 show?
33.8

Bench note: what TGI did CCOP(=O)(OCC)/C(C#N)=C/c1ccc(-c2ccc(F)cc2F)o1 show?
30.1

---

Test system: A498 renal
Assay: NCI tumour cell line growth inhibition, 48 h
reportedProperty: TGI (µM)
Supply the numeric figure in µM, leaving out any unit text.

Before answering, review these 2 worked examples.
1) COc1ccc(C(=O)/C=C/c2c(C(F)(F)F)nc3sccn23)cc1OC; 54.9
2) CCCCCCCCCCCCCCCC[N+](C)(C)CCN(Cc1ccc(OC)cc1)c1ncccn1; 5.21

Bench note: what TGI did CC(C)[C@@]12C[C@@H](OC(=O)COC(=O)/C=C/c3ccccc3)[C@@](C)(O1)[C@@H]1CC[C@@H](C)[C@H]1[C@@H]2OC(=O)/C=C/c1ccccc1 show?
0.401

Bench note: what TGI did C=C[C@H]1CC[C@H]2[C@@H]3CC=C4C[C@@H](OC5OCC(O)C(O)C5O)CC[C@]4(C)[C@H]3CC[C@]12C (some centres undefined) show?
21

Bench note: what TGI did N#Cc1c(N)nc(N2CCOCC2)c(C#N)c1-c1ccc(Cl)cc1 show?
36.3

Bench note: what TGI did O=C(CCCCCCSc1nc(-c2ccccc2)cc(-c2ccccc2)n1)NO show?
4.05

---

Test system: A549 NSCLC
Test: NCI tumour cell line growth inhibition, 48 h
Measured TGI of individual entries

Before answering, review these 10 worked examples.
1. O=C1Nc2ccccc2C1Cc1ccc([N+](=O)[O-])cc1 (configuration not stated); > 100 µM
2. COc1ccc2c(c1)c(-c1nc(-c3c[nH]c4ncccc34)cs1)cn2CCCCN1CCOCC1; 4.28 µM
3. O=C(/C=C/c1ccc(Cl)c(Cl)c1)c1ccc(F)cc1; > 100 µM
4. COc1cccc(Nc2nc(-c3cccs3)nc3ccc(Br)cc23)c1; > 100 µM
5. C=CN1C(=O)OC[C@@H]1c1ccccc1; > 100 µM
6. Cn1ccnc1C(=O)/C=C/c1ccc(CC(=O)Nc2ccc(S(F)(F)(F)(F)F)cc2)cc1; 9.15 µM
7. CCCCCCC#Cc1ccccc1C#CCO; 49 µM
8. COC(=O)C1C2C=CC(C2)C1(C(=O)OC)S(=O)CC12CCC(CC1O)C2(C)C (configuration not stated); > 100 µM
9. O=C1OC(CC(=O)c2ccc(Cl)cc2Cl)C(Cl)=C1Cl (configuration not stated); > 100 µM
10. O=C(O)C12C3C4C1C1C2C3C1(Br)C41OCCO1 (configuration not stated); > 100 µM

Bench note: what TGI did NC1=NNC2(C(=O)N1)c1ccccc1-c1ccccc12 show?
> 10 µM

Bench note: what TGI did O=C1C=C[C@@]23C[C@@H](Nc4c(O)c5c6c(c42)=NCCC=6C=N5)SC3=C1 show?
24.4 µM

Bench note: what TGI did CCOC(=O)NC(C(=O)OCC)C(F)(F)F (configuration not stated) show?
> 100 µM

Bench note: what TGI did N#CCC(=O)c1cc(OCc2cc(OCc3ccc(Br)cc3)cc(OCc3ccc(Br)cc3)c2)cc(OCc2cc(OCc3ccc(Br)cc3)cc(OCc3ccc(Br)cc3)c2)c1 show?
> 100 µM

Bench note: what TGI did O=C(Cc1ccccc1)NN1C(=O)C(Cl)C1c1ccc([N+](=O)[O-])cc1 (configuration not stated) show?
> 100 µM

Bench note: what TGI did Cc1nn(C(=O)c2ccncc2)c2c1C(c1ccc(Cl)cc1)SC(N)=N2 (configuration not stated) show?
> 10 µM

Bench note: what TGI did COc1c(OC)c(N)c2cc(C)c(=O)c(C)cc2c1N show?
> 100 µM

Bench note: what TGI did CCN1CN(c2ccccc2)C2(CCN(CCCSc3ccc(F)cc3)CC2)C1=O show?
21.2 µM

Bench note: what TGI did O=C(O)CCC(NC(=O)c1ccc(Nc2cnc3ccc(C(F)(F)F)cc3n2)cc1)C(=O)O (configuration not stated) show?
> 100 µM

Bench note: what TGI did NC1CC(N)c2c(Br)sc(Br)c21 (configuration not stated) show?
> 100 µM

Bench note: what TGI did C/C(=N\Nc1ccccc1Br)c1cccc(/C(C)=N/Nc2ccccc2Br)n1 show?
> 100 µM

Bench note: what TGI did C#CCOCn1ccc(=O)[nH]c1=O show?
> 100 µM

---

Tested on: OVCAR-3 ovarian
Experiment: NCI tumour cell line growth inhibition, 48 h
reportedProperty: TGI

Before answering, review these 5 worked examples.
1) C=CCOC1OC(CS(=O)(=O)O)C(O)C(O)C1O (stereo not drawn); > 100 µM
2) O=C1/C(=C/c2ccc3c(c2)OCO3)CCC1CN1CCOCC1 (stereo not drawn); 20.5 µM
3) c1ccc(-c2ccc(-c3cc4ccccc4[nH]3)cc2)cc1; > 100 µM
4) CCc1cccc2c3c(sc12)C(c1ccc(Cl)cc1)C(C#N)=C(N)O3 (stereo not drawn); 2.67 µM
5) CCN(CC)c1ccc(C2SCC(=O)N2c2ccc(NC(=O)c3ccc(N4C(=O)CSC4c4ccc(N(CC)CC)cc4)cc3)cc2)cc1 (stereo not drawn); > 100 µM

Bench note: what TGI did N#Cc1c(N)nc(N2CCOCC2)c(C#N)c1-c1ccc(Cl)cc1 show?
> 100 µM

Bench note: what TGI did C/C([O-])=C1\Cc2ccccc2C1=O.C/C([O-])=C1\Cc2ccccc2C1=O.CC[O-].CC[O-].[Ti+4] show?
> 100 µM

Bench note: what TGI did CC(C)C[C@H](NC(=O)[C@H]1O[C@@H]1C(=O)O)C(=O)NCCc1ccc(O)cc1 show?
> 100 µM
